# assay_explanation: NCI Yeast Anticancer Drug Screen. Data for the rad50 strain (AID 155);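 note: 0% = growth of vehicle-only cultures of the same strain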
# cond: S. cerevisiae rad50 strain growth inhibition; at 5.0 µM (retest, dose inferred, filed as 0.5)
# Experimental: Growth inhibition of yeast strains with defined genetic alterations is measured as a screen for potential anti-cancer activity. Selected strains with alterations in DNA damage repair or cell cycle control were exposed to compounds and growth inhibition was measured relative to vehicle treated controls. The strain used in this assay is rad50
This is part of a sample that, as a whole, favours compounds with a hit. Of some 79,000 tested, about 15% had one in any assay. The source made the active and inactive calls. Cut-off read from the data, not from the text of the source: active = growth inhibition above about 70%; inactive = the rest.
Classes used: active, inactive

[
  {
    "compound": "CCC(CC)(c1ccc(C)cc1)c1ccc(C)cc1",
    "group_label": "inactive"
  },
  {
    "compound": "O=C1C=CC(=O)N1c1ccc(-c2nc3ccccc3o2)cc1",
    "group_label": "inactive"
  },
  {
    "compound": "CC(=O)OCCSCCOC(C)=O",
    "group_label": "inactive"
  },
  {
    "compound": "O=S(=O)(CCNCCCCC1CCCCC1)SCCNCCCCC1CCCCC1",
    "group_label": "inactive"
  },
  {
    "compound": "Oc1cc(F)cc2cccnc12",
    "group_label": "inactive"
  },
  {
    "compound": "CCCCCCCCCCCCCCCCCCNC(=S)/N=C/c1c(O)cc(C)oc1=O",
    "group_label": "inactive"
  },
  {
    "compound": "CCCCC(/C=N\\NC(=O)c1ccc[n+](C)c1)=C/c1ccccc1",
    "group_label": "inactive"
  },
  {
    "compound": "O=C(O)C(Br)C(Br)C(=O)Nc1ccc(Cl)c(Cl)c1 (configuration not stated)",
    "group_label": "active"
  },
  {
    "compound": "CC1CCC2(CC1)NC1=C(CC(C)CC1)C1=C2CC(C)CC1 (configuration not stated)",
    "group_label": "inactive"
  },
  {
    "compound": "O=C1CCC(Cc2ccc(I)cc2)C(=O)N1 (configuration not stated)",
    "group_label": "inactive"
  },
  {
    "compound": "O=c1c2cccc3cccc(c4oc5c6cccc7cccc(c(=O)c5c14)c76)c32",
    "group_label": "inactive"
  },
  {
    "compound": "O=C(C(=O)c1ccc(Cc2ccc(C(=O)C(=O)c3ccccc3)cc2)cc1)c1ccccc1",
    "group_label": "inactive"
  }
]

* * *

Listed here: items and their measured growth inhibition.
# assay_explanation: NCI Yeast Anticancer Drug Screen. Data for the sgs1 mgt1 strain (AID 161);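 note: 0% = growth of cultures given vehicle only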
# cond: S. cerevisiae sgs1 mgt1 strain, at 50.0 µM, hits give high values
About 79,000 compounds went through this panel and 15% of them were active in at least one assay; those are over-represented in the sample as a whole. Calls of active or inactive are those of the source. Cut-off read from the data, not from the text of the source: active = growth inhibition above about 70%; inactive = the rest.

[
  {
    "compound": "COc1ccc(NCCN(C)C)c2c(=O)c3ccccc3sc12",
    "growth inhibition": "41.6% (inactive)"
  },
  {
    "compound": "CC(C)(C)C1=NN=C2c3ccccc3C(=O)C21 (centres undefined)",
    "growth inhibition": "53.2% (inactive)"
  },
  {
    "compound": "NSc1ccc(N)s1",
    "growth inhibition": "50.6% (inactive)"
  },
  {
    "compound": "CCCCCCCCCC(=O)CC(=O)c1c(O)cccc1O",
    "growth inhibition": "90.5% (active)"
  },
  {
    "compound": "CCN(CC)c1ccc(N=C2C=C(C(=O)Nc3cccc(Cl)c3)C(=O)c3ccccc32)c(C)c1",
    "growth inhibition": "-9.25% (inactive)"
  },
  {
    "compound": "N#CSc1ccc2nc(NCO)sc2c1",
    "growth inhibition": "99.3% (active)"
  },
  {
    "compound": "O=C(Nc1cccc(Cl)c1)Oc1c(Br)cc(Br)cc1Br",
    "growth inhibition": "99% (active)"
  },
  {
    "compound": "Cn1c(=S)c2[nH]c(SC3CCCCC3)nc2n(C)c1=O",
    "growth inhibition": "99.2% (active)"
  },
  {
    "compound": "Cc1ccc(S(=O)(=O)Nc2ccc(C)cc2C)cc1",
    "growth inhibition": "55.4% (inactive)"
  },
  {
    "compound": "O=c1[nH]c2ccccc2c2cccc(F)c12",
    "growth inhibition": "94.8% (active)"
  },
  {
    "compound": "COC(=O)c1c(COC(=O)NC(C)C)c2n(c1C)CS(=O)(=O)C2",
    "growth inhibition": "98.4% (active)"
  },
  {
    "compound": "Cc1cccc2ccc3cc(CC(=O)O)c4cccc(C)c4c3c12",
    "growth inhibition": "99.8% (active)"
  },
  {
    "compound": "C/C(=N/NC(N)=S)C(CN1CCOCC1)C(C1=C(O)c2ccccc2OC1)c1ccccc1 (centres undefined)",
    "growth inhibition": "80.9% (active)"
  },
  {
    "compound": "CCOC(=O)C(/C=N\\C(=S)Nc1ccc(Cl)c(Cl)c1)=C(/O)c1ccccc1",
    "growth inhibition": "75.5% (active)"
  },
  {
    "compound": "CCCCCCCCCCNC(=O)CBr",
    "growth inhibition": "-1.3% (inactive)"
  },
  {
    "compound": "CCCCCCCCCCSCCO",
    "growth inhibition": "93.5% (active)"
  },
  {
    "compound": "COC(=O)c1ccccc1NC(=O)C(=O)Cc1nc2c3c(ccc2[nH]c1=O)C(=O)c1ccccc1C3=O",
    "growth inhibition": "16.2% (inactive)"
  },
  {
    "compound": "Nc1ncnc2nc(-c3ccc(C[P+](c4ccccc4)(c4ccccc4)c4ccccc4)cc3)[nH]c12",
    "growth inhibition": "73.8% (active)"
  },
  {
    "compound": "CNC(=O)c1cccc2c(Nc3ccc(NS(C)(=O)=O)cc3OC)c3cccc(C)c3nc12",
    "growth inhibition": "-4.45% (inactive)"
  },
  {
    "compound": "CN(C)CCCNCC(=O)Nc1ccc(S(=O)(=O)c2ccc(NC(=O)CNCCCN(C)C)cc2)cc1",
    "growth inhibition": "97.2% (active)"
  },
  {
    "compound": "COc1ccc(-c2nc3c(C(=O)NCCN(C)C)cccc3c3ccccc23)cc1",
    "growth inhibition": "13.9% (inactive)"
  },
  {
    "compound": "CCC1=CCC2C(=O)c3cc4ccccc4cc3C(=O)C2C1 (centres undefined)",
    "growth inhibition": "89.6% (active)"
  },
  {
    "compound": "O=C(OC1CC2CC1C1CC=CC21)c1ccccc1 (centres undefined)",
    "growth inhibition": "-3.8% (inactive)"
  },
  {
    "compound": "Cc1cc2c(c3c1C(=O)CC3)C(C)(C)CC2(C)C",
    "growth inhibition": "1.65% (inactive)"
  }
]

* * *

# assay_explanation: NCI Yeast Anticancer Drug Screen. Data for the bub3 strain (AID 167)
# cond: S. cerevisiae bub3 mutant strain, at 50.0 µM (retest, dose inferred, filed as 5.0), hits give high values
# Method: Growth inhibition of yeast strains with defined genetic alterations is measured as a screen for potential anti-cancer activity. Selected strains with alterations in DNA damage repair or cell cycle control were exposed to compounds and growth inhibition was measured relative to vehicle treated controls. The strain used in this assay is bub3
This is part of a sample that, as a whole, favours compounds with a hit. Of some 79,000 tested, about 15% had one in any assay.
Listed here: items and their measured growth inhibition.

[
  {
    "compound": "CC(O)CC(O)CC1CCCO1 (configuration not stated)",
    "result_units": "%",
    "growth inhibition": 19
  },
  {
    "compound": "C/C(=N\\NC(N)=S)c1ccc(Oc2ccccc2)cc1",
    "result_units": "%",
    "growth inhibition": 70
  },
  {
    "compound": "S=C(N/N=C1/CCCC/C1=N/NC(=S)N1CCOCC1)N1CCOCC1",
    "result_units": "%",
    "growth inhibition": 99
  },
  {
    "compound": "CC(=O)Nc1cccc(C(=O)O)c1",
    "result_units": "%",
    "growth inhibition": 7
  },
  {
    "compound": "CCN(CC)CCSCCCNc1cc(OC)cc2cccnc12",
    "result_units": "%",
    "growth inhibition": 54
  },
  {
    "compound": "CC1CCC(NCCOC(=O)c2ccc([N+](=O)[O-])cc2)CC1 (configuration not stated)",
    "result_units": "%",
    "growth inhibition": -71
  },
  {
    "compound": "O=C(O)c1ccccc1NC(c1ccccc1)c1ccc2cccnc2c1O (configuration not stated)",
    "result_units": "%",
    "growth inhibition": 95
  },
  {
    "compound": "O=C(O)/C=C\\c1cc2ccccc2c2ccccc12",
    "result_units": "%",
    "growth inhibition": 99
  },
  {
    "compound": "O=C(C[n+]1ccc2ccccc2c1)c1ccc2ccc3ccccc3c2c1",
    "result_units": "%",
    "growth inhibition": 92
  },
  {
    "compound": "COC(=O)c1ccc(CCc2cc(O)ccc2O)cc1",
    "result_units": "%",
    "growth inhibition": 99
  },
  {
    "compound": "CSC(=S)n1nc(-c2ccccc2)c(N=Nc2ccccc2[N+](=O)[O-])c1C",
    "result_units": "%",
    "growth inhibition": 95
  },
  {
    "compound": "COc1ccccc1C1(c2ccccc2OC)OC(=O)c2ccccc21",
    "result_units": "%",
    "growth inhibition": 17
  }
]
